METHOD DESCRIPTION: Pharmacokinetics study in CD-1 mice (IV, PO)
Assay type: in vivo
TEST PARAMETERS: CD-1, mouse, plasma, iv, 1 mg/kg, IV 1 mg/kg, time point 1, individual animals A-D
EXPERIMENTAL READOUT: concentration at 1 h

Specify measured concentration at 1 h for Cc1ccc(F)cc1C[C@H](C)Nc1cc[nH]c(=O)c1-c1nc2cc3c(cc2[nH]1)C(=O)N(CCN1CCCC1)C3 [compound (II)] . 14.1 ng/mL

----------
TARGET OR TEST SYSTEM: IRK (Homo sapiens)
Construct: 6×His- or GST-tagged kinase domain fragments of the corresponding RTKs expressed in baculovirus system; host or cells: baculovirus system
Sequence (P06213 1023-1298 limits assumed): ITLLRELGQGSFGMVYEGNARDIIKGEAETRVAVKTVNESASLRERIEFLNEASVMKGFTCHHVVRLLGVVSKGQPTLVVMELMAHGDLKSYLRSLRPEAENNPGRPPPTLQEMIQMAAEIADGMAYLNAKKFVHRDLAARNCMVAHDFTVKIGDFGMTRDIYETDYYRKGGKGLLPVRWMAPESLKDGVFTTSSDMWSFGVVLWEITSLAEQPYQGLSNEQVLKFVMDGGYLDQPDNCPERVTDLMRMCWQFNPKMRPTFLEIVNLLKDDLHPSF
METHOD DESCRIPTION: IRK (insulin receptor kinase) assay
Type: biochemical
TEST PARAMETERS: Table 3A; read-out: Cell Free IC50 IRK
EXPERIMENTAL READOUT: IC50 (nM)
All answers are understood in nM, so give the number only.

Report measured IC50 on IRK (Homo sapiens); entry: Cc1ccc(F)cc1C[C@H](C)Nc1cc[nH]c(=O)c1-c1nc2cc3c(cc2[nH]1)C(=O)N(CCN1CCCC1)C3 [drawing 360] 254

Report measured IC50 on IRK (Homo sapiens); entry: Cc1ccc(F)cc1C[C@H](C)Nc1cc[nH]c(=O)c1-c1nc2cc3c(cc2[nH]1)CN(CCN(C)C)C3=O [drawing 361] 526
